Source of measurements: the METLIN SMRT retention time set (Domingo-Almenara et al. 2019)

- PROCEDURE SUMMARY: gradient 5% acetonitrile 3 min, to 50% in 2 min, to 85% in 15 min, held 3 min, 100 µL/min
- RUN PARAMETERS: column: Zorbax Extend-C18 2.1 x 50 mm; eluents: water / acetonitrile, 0.1% formic acid
MEASUREMENT KIND: RP-LC retention time (s)

Reference set (8 entries):
| COMPOUND | UNIT ABBREVIATION | OBS VALUE |
| --- | --- | --- |
| Cc1nnc(NC(=O)c2csc(Nc3ccc(OC(F)F)cc3)n2)s1 | s | 781 |
| CCCn1c(=O)sc2cc(S(=O)(=O)N3CCC(C(=O)N(C)C4CCCCC4)CC3)ccc21 | s | 1020 |
| CCc1ccc(-n2nc(CO)c(C(=O)NC3CCCC3)n2)cc1 | s | 1120 |
| O=C(NCCCN1CCOCC1)c1cc2n(n1)CCCN(Cc1ccccc1)C2=O | s | 594 |
| CCc1csc(-c2cn(CC(=O)NCc3ccc(Cl)cc3)cn2)n1 | s | 724 |
| CCCC(=O)OCC1OC(n2ccc(N)nc2=O)C(OC(=O)CCC)C1OC(=O)CCC (stereo not given) | s | 738 |
| CCOC(=O)c1cccc(N2C=C(C#N)S(=O)(=O)c3ccccc32)c1 | s | 898 |
| Cc1nc(-c2csc(S(=O)(=O)NCc3ccc(F)cc3Cl)c2)sc1C | s | 1070 |

(P) COc1cccc(-c2cc(=O)c3ccccc3o2)c1N
(Q) O=C(NCc1cccs1)c1cccnc1N1CCNC(c2ccccc2)C1 (stereo not given)
Q. Return label of the item with the larger RP-LC retention time. Candidates: P , Q . API: response body contains the label of the selected item.
A. P

* * *

- PROCEDURE SUMMARY: gradient 5% acetonitrile 3 min, to 50% in 2 min, to 85% in 15 min, held 3 min, 100 µL/min
- RUN PARAMETERS: column: Zorbax Extend-C18 2.1 x 50 mm; eluents: water / acetonitrile, 0.1% formic acid
MEASUREMENT KIND: RP-LC retention time (s)

| COMPOUND | UNIT ABBREVIATION | RP-LC retention time |
| --- | --- | --- |
| c1ccc(-c2ccc(CNCC3CCCO3)o2)cc1 (stereo not given) | s | 642 |
| CCc1ccc(Nc2ncccc2S(N)(=O)=O)cc1 | s | 891 |

(I) COc1cccc(CCN2CC(=O)N(c3ccc(C)c(C)c3)[C@@H]3CS(=O)(=O)C[C@@H]32)c1
(II) COc1cccc(C2Cn3nnc(-c4nc(-c5ccc(OCc6ccccc6)cc5)no4)c3CO2)c1 (stereo not given)
Q. Return label of the item with the larger RP-LC retention time. Candidates: I , II . API: response body contains the label of the selected item.
A. II
(II: 1340 s, I: 872 s)

(A) CC(C)CC(=O)Nc1ccc2c(c1)nc(CN1CCCC1)n2C(C)C
(B) Cc1sc(-c2cc(C(F)(F)F)on2)cc1S(=O)(=O)NCc1ccccc1Cl
Q. Return label of the item with the larger RP-LC retention time. Candidates: A , B . API: response body contains the label of the selected item.
A. B

* * *

- PROCEDURE SUMMARY: gradient 5% acetonitrile 3 min, to 50% in 2 min, to 85% in 15 min, held 3 min, 100 µL/min
- RUN PARAMETERS: column: Zorbax Extend-C18 2.1 x 50 mm; eluents: water / acetonitrile, 0.1% formic acid
MEASUREMENT KIND: RP-LC retention time (s)

Reference set (3 entries):
| MOLECULE | OBS VALUE |
| --- | --- |
| COc1ccc(OCC(=O)Nc2c(C(=O)N3CCN(c4ccccn4)CC3)oc3ccccc23)cc1 | 741 |
| CCC(=O)N1CCc2cc(N3CC(C(=O)NCc4cccc(Cl)c4)CC3=O)ccc21 (centres undefined) | 776 |
| CCOc1ccc(S(=O)(=O)[C@H]2CS(=O)(=O)C[C@@H]2N2CCN(c3ccccn3)CC2)cc1 | 640 |

(A) Fc1ccc(-c2nnc(Cc3nc(-c4ccc(C(F)(F)F)cc4)no3)o2)cc1
(B) O=C(NCc1cccc(Br)c1)C1CCCN(c2ccc(N3CCOCC3)nn2)C1 (centres undefined)
Q. // select label with min value of measured RP-LC retention time from [ A , B ] API: response body contains the label of the selected item.
A. B

(a) Cn1nc(-c2nc(Cc3ccccc3)no2)c2c1CCN(C(=O)NC1CCCC1)C2
(b) Cc1oc(-c2cccc(Cl)c2)nc1COc1cc(C)c2c(C)nn(C)c2n1
Q. Return label of the item with the larger RP-LC retention time. Candidates: a , b . API: response body contains the label of the selected item.
A. b
(b: 1340 s, a: 867 s)

* * *

- PROCEDURE SUMMARY: gradient 5% acetonitrile 3 min, to 50% in 2 min, to 85% in 15 min, held 3 min, 100 µL/min
- RUN PARAMETERS: column: Zorbax Extend-C18 2.1 x 50 mm; eluents: water / acetonitrile, 0.1% formic acid
MEASUREMENT KIND: RP-LC retention time (s)

(1) O=C(NCc1ccccc1F)c1ccc2c(c1)ncn2CCN1CCCC1
(2) CN(C(=O)CN(Cc1ccc(Cl)cc1)S(=O)(=O)c1cccnc1)c1ccccc1
Q. // select label with min value of measured RP-LC retention time from [ 1 , 2 ] API: response body contains the label of the selected item.
A. 1
(1: 574 s, 2: 917 s)

* * *

- PROCEDURE SUMMARY: gradient 5% acetonitrile 3 min, to 50% in 2 min, to 85% in 15 min, held 3 min, 100 µL/min
- RUN PARAMETERS: column: Zorbax Extend-C18 2.1 x 50 mm; eluents: water / acetonitrile, 0.1% formic acid
MEASUREMENT KIND: RP-LC retention time (s)

| COMPOUND | OBS VALUE |
| --- | --- |
| CC(C)NC(=O)CSc1nnc2c3cc(-c4ccc(F)cc4)nn3ccn12 | 735 |
| Cc1cccc(Nc2ccc(N3CCN(C(=O)Cc4c[nH]c5ccccc45)CC3)nn2)n1 | 574 |
| Cc1cc2n(n1)CCC(=O)N2CCCC(=O)NCCN(C)C1CCCCC1 | 576 |
| O=C(c1cccnc1)N1CCC(c2nc(-c3ccccc3)no2)C1 (centres undefined) | 726 |
| O=C(NC1CCN(c2cc(-c3cccs3)[nH]n2)C1)c1cccc2[nH]ccc12 (centres undefined) | 672 |

(A) COc1ccc(S(=O)(=O)NCCc2cn(C)c3ncccc23)cc1
(B) Cc1cccc(-c2nc(Cn3nnc(-c4nc(-c5cccnc5)no4)c3C)c(C)o2)c1
Q. // select label with min value of measured RP-LC retention time from [ A , B ] API: response body contains the label of the selected item.
A. A

(a) Cn1c(=O)c(SCC(=O)NC2CCN(Cc3ccccc3)CC2)nc2ccccc21
(b) Cc1cccc(-c2nc(-c3cccc(-c4ccnn4C)c3)no2)c1
Q. // select label with min value of measured RP-LC retention time from [ a , b ] API: response body contains the label of the selected item.
A. a
(a: 624 s, b: 1220 s)

* * *

- PROCEDURE SUMMARY: gradient 5% acetonitrile 3 min, to 50% in 2 min, to 85% in 15 min, held 3 min, 100 µL/min
- RUN PARAMETERS: column: Zorbax Extend-C18 2.1 x 50 mm; eluents: water / acetonitrile, 0.1% formic acid
MEASUREMENT KIND: RP-LC retention time (s)

Reference set (5 entries):
| MOLECULE | RP-LC retention time [s] |
| --- | --- |
| COc1ccc(-c2noc(-c3cc(N4CCN(C)CC4)nc4ccccc34)n2)cc1 | 794 |
| COc1ccc(CN2C(=O)c3ccccc3C2C(=O)NCC2CCCO2)c(OC)c1 (centres undefined) | 695 |
| COc1ccccc1NC(=O)Nc1c(C)nc2ccc(C)cn2c1=O | 616 |
| COc1ccc(CCC(=O)N2CCc3c(c(C(=O)N4CCCC(C(=O)NC5CC5)C4)nn3C)C2)cc1 (centres undefined) | 649 |
| CC(C)n1c(CCNC(=O)Cc2ccc(F)cc2)nc2cccnc21 | 672 |

(1) CCOc1ccc(-c2[nH]ncc2CNS(=O)(=O)c2ccc(OC)c(Cl)c2)cc1
(2) O=C(CCCOc1ccc(Cl)cc1Cl)Nc1nc(-c2ccc(Cl)cc2)cs1
Q. Return label of the item with the larger RP-LC retention time. Candidates: 1 , 2 . API: response body contains the label of the selected item.
A. 2

(A) C=CCN1CCc2c(cc(O)c(O)c2Cl)C(c2ccccc2)C1 (centres undefined)
(B) O=S(=O)(Nc1ccc(-c2noc(COc3ccc(F)cc3)n2)cc1)c1cccs1
Q. // select label with min value of measured RP-LC retention time from [ A , B ] API: response body contains the label of the selected item.
A. A

(A) CN(CCCNC(=O)CN1C(=O)CSc2cccn2-c2ccccc21)Cc1ccccc1
(B) CCOc1ccccc1NC(=O)CSc1cc(N2CCN(c3ccccc3OC)CC2)ncn1
Q. Return label of the item with the larger RP-LC retention time. Candidates: A , B . API: response body contains the label of the selected item.
A. B

(A) O=C([C@@H]1C[C@H](F)CN1S(=O)(=O)c1ccc(F)c(F)c1)N1CCc2ccccc2C1
(B) O=C(Cn1ncc2c(N3CCN(c4ccccn4)CC3)ncnc21)Nc1ccc(Cl)cc1F
Q. // select label with min value of measured RP-LC retention time from [ A , B ] API: response body contains the label of the selected item.
A. B

(a) COc1ccc(NC(=O)c2nnc(CSCC(=O)NCCc3c[nH]c4ccc(C)cc34)s2)cc1
(b) O=C(CCc1conc1-c1ccccc1)N1CCC(N2CCCCC2)CC1
Q. // select label with min value of measured RP-LC retention time from [ a , b ] API: response body contains the label of the selected item.
A. b
(b: 616 s, a: 910 s)

(P) O=C(NCCC1CCN(C(=O)Nc2cc(F)cc(F)c2)CC1)c1ccco1
(Q) Cc1ccc(-c2coc(-c3cccc(NS(=O)(=O)c4ccc(Br)s4)c3)n2)cc1
Q. // select label with min value of measured RP-LC retention time from [ P , Q ] API: response body contains the label of the selected item.
A. P
